test system: 782815-120-R-J1-PDC complex spheroid viability; assay: Anticancer human tumor 782815-120-R-J1-PDC patient-derived colon adenocarcinoma cell line growth inhibition [RAS]; details: curve of first compound; second compound 0.00949 µM;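 note: spheroids exposed to compounds for 7 days before reading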
pIC50: −log10 of the molar value.
Entries annotated with measured pIC50

Molecule	Assay Target	Measurement Kind	Result
CCC(CC)c1cc(NC2CCC(N)C2)n2nccc2n1 (stereo unspecified) + CCn1c(-c2cccnc2C(C)OC)c2c3cc(ccc31)N1CCOC(CC(NC(=O)C(C(C)C)N(C)C(=O)C3(F)CCN(C(=O)C#CC(C)(C)N(C)C)CC3)C(=O)N3CCCC(N3)C(=O)OCC(C)(C)C2)C1	782815-120-R-J1-PDC complex spheroid viability	pIC50	5.54
CC(C)NCC(C(=O)N1CCN(c2ncnc3c2C(C)CC3O)CC1)c1ccc(Cl)cc1 (stereo unspecified) + CCn1c(-c2cc(N3CCN(C)CC3)cnc2C(C)OC)c2c3cc(ccc31)-c1csc(n1)CC(NC(=O)C1CC1C)C(=O)N1CCCC(N1)C(=O)OCC(C)(C)C2	782815-120-R-J1-PDC complex spheroid viability	pIC50	> 7.50
C=CC(=O)N1CCN(c2nc(OCC3CCCN3C)nc3c(F)c(-c4nc(N)cc(C)c4C(F)(F)F)c(Cl)cc23)C(C)C1 (stereo unspecified) + CCn1c(-c2cc(N3CCN(C)CC3)cnc2C(C)OC)c2c3cc(ccc31)-c1csc(n1)CC(NC(=O)C1CC1C)C(=O)N1CCCC(N1)C(=O)OCC(C)(C)C2	782815-120-R-J1-PDC complex spheroid viability	pIC50	> 8.50

Give the reported pIC50 for Nc1ccn(C2OC(CO)C(O)C2(F)F)c(=O)n1 (stereo unspecified) + CCn1c(-c2cc(N3CCN(C)CC3)cnc2C(C)OC)c2c3cc(ccc31)-c1csc(n1)CC(NC(=O)C1CC1C)C(=O)N1CCCC(N1)C(=O)OCC(C)(C)C2 (system: 782815-120-R-J1-PDC complex spheroid viability).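 Note: spheroids exposed to compounds for 7 days before reading.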
> 8.50

Fill in the recorded pIC50 for this molecule, with 782815-120-R-J1-PDC complex spheroid viability as test system: C[C@@H](NC(=O)c1ncnc(N)c1Cl)c1ncc(C(=O)Nc2cc(C(F)(F)F)c(Cl)cn2)s1 + CCn1c(-c2cccnc2C(C)OC)c2c3cc(ccc31)N1CCOC(CC(NC(=O)C(C(C)C)N(C)C(=O)C3(F)CCN(C(=O)C#CC(C)(C)N(C)C)CC3)C(=O)N3CCCC(N3)C(=O)OCC(C)(C)C2)C1
< 5.00

Could you share what pIC50 was measured for CC(C)n1nc(-c2ccc3oc(N)nc3c2)c2c(N)ncnc21 + CCn1c(-c2cc(N3CCN(C)CC3)cnc2C(C)OC)c2c3cc(ccc31)-c1csc(n1)CC(NC(=O)C1CC1C)C(=O)N1CCCC(N1)C(=O)OCC(C)(C)C2 , tested on 782815-120-R-J1-PDC complex spheroid viability?;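 note: spheroids exposed to compounds for 7 days before reading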
> 9.50

GET /values?readout=pIC50&system=782815-120-R-J1-PDC complex spheroid viability&item= CC1(O)CCCC1n1c(=O)c(C(F)F)cc2cnc(NC3CCN(S(C)(=O)=O)CC3)nc21 (stereo unspecified) + CCn1c(-c2cccnc2C(C)OC)c2c3cc(ccc31)N1CCOC(CC(NC(=O)C(C(C)C)N(C)C(=O)C3(F)CCN(C(=O)C#CC(C)(C)N(C)C)CC3)C(=O)N3CCCC(N3)C(=O)OCC(C)(C)C2)C1;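 note: spheroids exposed to compounds for 7 days before reading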
5.39

Under 782815-120-R-J1-PDC complex spheroid viability: pIC50 value of CC(Nc1ccc2c(c1)OCCn1cc(N3C(=O)OCC3C(F)F)nc1-2)C(N)=O (stereo unspecified) + CCn1c(-c2cccnc2C(C)OC)c2c3cc(ccc31)N1CCOC(CC(NC(=O)C(C(C)C)N(C)C(=O)C3(F)CCN(C(=O)C#CC(C)(C)N(C)C)CC3)C(=O)N3CCCC(N3)C(=O)OCC(C)(C)C2)C1 ?
< 5.00
